Listed below: IC50, inhibition of rHMG1 stimulated IL-6 release from human PBMCs values for each entry.
MEASUREMENT TARGET: T1, recombinant HMG1 produced in E. coli as calmodulin binding protein (CBP) fusion (human)
T1 chain: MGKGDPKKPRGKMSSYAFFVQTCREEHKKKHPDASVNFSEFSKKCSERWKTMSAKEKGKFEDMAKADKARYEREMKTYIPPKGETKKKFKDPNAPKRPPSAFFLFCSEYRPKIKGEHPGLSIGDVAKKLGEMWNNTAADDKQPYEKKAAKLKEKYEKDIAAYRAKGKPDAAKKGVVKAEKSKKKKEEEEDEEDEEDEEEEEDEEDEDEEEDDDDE
ASSAY SUMMARY: cell-based or functional assay
All answers are understood in nM, so give the number only.

- BINDER: "anti-HMG1 antibody G34 (antibody, V domains shown) VH: EVQLLESGGGLVQPGGSLRLSCAASGFTFSHYMMGWVRQAPGKGLEWVSRISPSGGGTVYADSVKGRFTISRDNSKNTLYLQMNSLRAEDTAVYYCARGGNWNYISYYYYYLDVWGKGTTVTVSS VL: DIQMTQSPSSLSASVGDRVAITCRASQSIDTYLNWYQQKPGKAPKLLIYAASKLEDGVPSRFSGSGTGTDFTLTIRSLQPEDFASYFCQQSYSSPGITFGPGTKVEIK"
  RECORDED MEASUREMENT: 0.858

// query Would you mind telling me what IC50, inhibition of rHMG1 stimulated IL-6 release from human PBMCs value was observed for anti-HMG1 antibody G12 (antibody, V domains shown) VH: EVQLLESGGGLVQPGGSLRLSCAASGFTFSYYMMTWVRQAPGKGLEWVSSISPSGGYTIYADSAKGRFTISRDNSKNTLYLQMNSLRAEDTAVYYCARALSTGSFWDYWGQGTLVTVSS VL: DIQMTQSPGTLSLSPGERATLSCRASESLTSTYVAWYQHKPGQAPRLLIHGGSTRATGIPVRFSGSGSGTDFTLTIATLEPEDFAVYYCQQYGSSPYTFGQGTKLEIK ?
// result 1.12

// query Would you mind telling me what IC50, inhibition of rHMG1 stimulated IL-6 release from human PBMCs value was observed for anti-HMG1 antibody G20 (antibody, V domains shown) VH: EVQLLESGGGLVQPGGSLRLSCAASGFTFSWYDMFWVRQAPGKGLEWVSWISPSGGYTKYADSVKGRFTISRDNSKNTLYLQMNSLRAEDTAMYYCARSGLDYYDSSGYLDAFDIWGQGTMVTVSS VL: DIQMTQSPSSVSASVGDRVTITCRASQDVSIWLAWYQQKPGKAPKLLIFGASRLQSGVPSRFSGSRSGADFTLTIDSVQPEDFASYYCQQADSFPLTFGGGTKVEIK ?
// result 0.652
